System: RXF 393
Assay: Growth inhibition of human RXF393 cells assessed as cell growth at 10 uM after 48 hrs by sulforhodamine B assay relative to control
Format: functional
Details: RXF 393, 48 h, read-out: Activity
OBSERVATION TYPE: growth at 10 µM (%)
API: value field is a number in %; no unit string.

The cases that follow already have their growth at 10 µM on record.
>>> quantitative_result("COc1ccc(Cn2cc(C(=O)N/N=C3/C(=O)Nc4ccc(F)c(Cl)c43)nn2)cc1")
104
>>> quantitative_result("COc1ccc(Cn2cc(C(=O)N/N=C3/C(=O)Nc4c(F)cccc43)nn2)cc1")
86.3
>>> quantitative_result("COc1ccc(Cn2cc(C(=O)N/N=C3/C(=O)Nc4c(C)cccc43)nn2)cc1")
81.9
>>> quantitative_result("COc1ccc(Cn2cc(C(=O)N/N=C3/C(=O)Nc4ccc(Br)cc43)nn2)cc1")
99.8

Please give measured growth at 10 µM of the following entry: COc1ccc(Cn2cc(C(=O)N/N=C3/C(=O)Nc4ccccc43)nn2)cc1 101

Reference source: ChEMBL document CHEMBL4411296
